Reported AUC values are given for each entry in this list.
test: AUC in Lewis rat at 1 mg/kg, iv; type: ADME, organism-based; parameters: dose 1 mg/kg, route intravenous; conditions: plasma
Experimental Readout: AUC (µg·h/mL)

• Cc1ccn2nc(-c3ccc(F)cc3)c(-c3ccncc3)c2c1 = 0.2
• Fc1ccc(-c2nn3c(OCC(F)(F)F)cccc3c2-c2ccncc2)cc1 = 0.5
• Fc1ccc(-c2nn3cc(C(F)(F)F)ccc3c2-c2ccncc2)cc1 = 0.5

----------
biological target: UniProt:P24941; experiment: Inhibition of CDK2/CyclinA
Experimental Readout: IC50

• Fc1ccc(-c2nn3ccccc3c2-c2ccncc2)cc1 [GW434756X] = > 10 µM

Data origin, for the record: ChEMBL document CHEMBL1152233
